Overview of recorded DGI-2/LDH for various binders
Molecular target: T1, DGI-2 polypeptide (UniProt Q15004 1-111, limits assumed)
T1 construct: Soluble recombinant protein coated at 500 ng/well; vector tag of pIVEX2.3-MCS not described for this construct; also called KIAA0101
T1 sequence (looked up): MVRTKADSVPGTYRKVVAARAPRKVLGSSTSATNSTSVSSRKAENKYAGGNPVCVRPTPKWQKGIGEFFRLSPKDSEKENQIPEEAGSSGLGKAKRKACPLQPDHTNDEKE
Assay: phage ELISA
Numbers only here, please. The scale is ratio.

Solved cases below.
- RSYPRLCKQKGGVIGRMLPGAAAGAPVPYPDPLEPRP [DGI-2-20F-PP-B2]: 2.9
- LFRFSGTGMASLPCVGWHLVAAAGAPVPYPDPLEPRP [DGI-2-20F-PP-B6]: 2.6

Turning to the following binder.
Which DGI-2/LDH reading was recorded for the binder FGSTAYADMLSQFRKFAMNISAAAGAPVPYPDPLEPRP [DGI-2-20F-PP-E1] ?
1.9
